Field: RAMPO Score. Provide a value for each of the binders that follow.
tested.system: T1, His-tagged P3028 (human, also: His tag, length and end not given here)
T1 construct: in solution at 0.5 ug/mL, detected with mouse anti-His antibody and rabbit anti-mouse peroxidase (rampo); also called PGE73; His-tag-P3028; not shown: His tag
T1 peptide: VFDEFKPLVEEPQNLIK
protocol: PEPSCAN ELISA, peptide on chip;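 note: binding detected by peroxidase ELISA with ABTS, OD405 colour imaged by CCD camera before and after staining, raw OD405 reported as rampo units, air-bubble wells scored 0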
Ends that are not written are not given here.

Entry KKLDTFMVKLSLFTER [SEQ ID NO 321] has what RAMPO Score?
712 rampo units

Please answer likewise for KKLDTFFVKLSLMTER [SEQ ID NO 367]
1190 rampo units

Now try KKLDTFFVKLSRFTER [SEQ ID NO 356] .
483 rampo units
